Reference for the values: PubChem BioAssay (NCATS)

test: qHTS of pediatric cancer cell lines to identify multiple opportunities for drug repurposing: Primary screen for Rh18 cells (AID 1347102); further: nearly all actives have a fitted effect of over 65% in size
experimental_parameters: Rh18 rhabdomyosarcoma viability, CellTiter-Glo luminescence, 48 h; series mostly up to 46 µM
Protocol: Drug repurposing or repositioning has been offered as a strategy for drug development in oncology programs. […] [1] Shen, M et al. Quantitative high-throughput phenotypic screening of pediatric cancer cell lines identifies multiple opportunities for drug repurposing. […] Cells were assayed in growth media at a density of 500-1,000 cells/well. […] After a 15 min incubation at room temperature, samples were analyzed for luminescence intensity using a ViewLux High-throughput CCD imager equipped with clear filters.
Results filed as inconclusive are left out. Activity calls are given as the source filed them. The call rests on the fitted dose curve; in most records, active means well fitted cell-killing curve with a large enough effect; inconclusive means small, poorly fitted or top-dose-only effect; inactive means flat fitted curve, though single readings scatter.
A correct response names exactly one class from active, inactive

- smiles_record: "C[C@]12C=CC(=O)C=C1CC[C@@H]1[C@@H]2[C@@H](O)C[C@@]2(C)[C@@H]1CC[C@]2(O)C(=O)CO"
  answer_label: "inactive"
- smiles_record: "CC(=O)NCCC(=O)N[C@@H](CCC(N)=O)C(=O)N[C@@H](CO)C(=O)N[C@@H](CCC(N)=O)C(=O)N[C@@H](CCC(N)=O)C(=O)N[C@H](C(=O)N[C@@H](Cc1ccccc1)C(=O)N[C@]1(C)CCCCCCC=CCCC[C@@](C)(C(=O)N[C@@H](CCC(N)=O)C(=O)N[C@@H](CC(N)=O)C(N)=O)NC(=O)[C@H](CC(C)C)NC(=O)[C@H](CC(C)C)NC(=O)[C@@H](CCCNC(=N)N)NC(=O)[C@H](Cc2c[nH]c3ccccc23)NC(=O)[C@H](CC(C)C)NC(=O)[C@H](CC(N)=O)NC1=O)[C@H](C)O"
  answer_label: "inactive"
- smiles_record: "C[C@@]1(C(=O)Nc2ccc(F)nc2)CCCN1c1nc(Nc2cc(C3CC3)[nH]n2)c2cccn2n1"
  answer_label: "active"
- smiles_record: "Nc1ccn([C@@H]2O[C@H](CO)[C@@H](O)[C@H]2O)c(=O)n1"
  answer_label: "inactive"

Alright, here's another molecule for you.
Qu. Status in this test for CN1CCN(c2ncc(-c3cc(Cl)cc(Cl)c3Cl)c(N)n2)CC1 ?
Ans. inactive
